# assayNotes: qHTS Assay for Enhancers of SMN2 Splice Variant Expression; note: nearly all actives have a fitted effect of over 55% in size
# conditionInfo: HEK293 SMN2-luciferase splicing reporter, luminescence, 30-36 h; series mostly up to 46.1 µM
# Description: NIH Chemical Genomics Center [NCGC] NIH Molecular Libraries Probe Production centers Network [MLPCN] MLPCN Grant: R03 MH084179-01 Assay Submitter (PI): Elliot Androphy NCGC Assay Overview: Spinal muscular atrophy (SMA) is caused by insufficient levels of the survival motor neuron protein SMN. The SMN locus on chromosome 5q13 contains two inverted copies of SMN called SMN1 and SMN2 which are 99% identical at the amino acid level. […]
About 5,900 (2.8%) of roughly 210,000 compounds were called active. Not shown: some 5% with an inconclusive outcome. Calls come from the whole dose curve; as a rule, active = well fitted activation curve with a large enough effect; inconclusive = small, poorly fitted or top-dose-only effect; inactive = no such curve, though single readings can be large or run the other way. For the sample, actives were picked, then their nearest neighbours and some compounds at random.
Outcome codes: active, inactive

compound=COc1ccc(-c2nc3nc(C)cc(C)n3c2Nc2c(C)cccc2C)cc1 qualitativelabel=inactive
compound=Cc1cccc(N2CCN(C3=C(c4ccccc4)C(=O)c4ccccc43)CC2)c1C qualitativelabel=inactive
compound=COc1ccccc1N1CCN(c2ncnc3onc(-c4cccc(Cl)c4)c23)CC1 qualitativelabel=inactive
compound=Nn1c(SCC(=O)Nc2nccs2)nncc1=O qualitativelabel=inactive
compound=Cc1ccc(C)c(Cn2c(=O)n(CCC(=O)NCc3ccc4c(c3)OCO4)c(=O)c3sccc32)c1 qualitativelabel=inactive
compound="COc1ccccc1NC(=O)C1=C(C)NC(=O)NC1c1ccc(C)s1 (stereo not drawn)" qualitativelabel=inactive
compound=CCOc1ccc(C(=O)c2cn(Cc3ccc(F)cc3)c3ccc(F)cc3c2=O)cc1 qualitativelabel=inactive
compound=COc1ccccc1NC(=O)/C=C/C(N)=O qualitativelabel=inactive
compound=Cc1ccc(NC(=O)c2cccs2)cc1S(=O)(=O)N(C)C qualitativelabel=inactive
compound=Cc1[nH]c2ccccc2c1SCC(=O)Nc1nccs1 qualitativelabel=active
compound=Cc1ccccc1C(=O)NCc1nc(-c2ccc(Cl)cc2)no1 qualitativelabel=inactive
compound=COc1ccc(NC(=O)c2sc(N)nc2-c2ccccc2)cc1 qualitativelabel=inactive
compound="COc1ccc(CCN2C(=O)N(c3cccc(OC)c3)C(=O)C2CC(=O)Nc2ccccc2)cc1 (stereo not drawn)" qualitativelabel=inactive
compound=COc1cccc2c1cc1c(=O)n(CC(=O)N3CCN(c4ccccc4)CC3)nc(C)n12 qualitativelabel=inactive
compound=CCn1c(SCC(=O)Nc2nccs2)nnc1-c1ccncc1 qualitativelabel=inactive
compound=COc1ccc(-c2noc(COc3ccc(Cl)c(C)c3)n2)cc1 qualitativelabel=inactive
compound=Cc1ccn2c(Nc3ccc4c(c3)OCCO4)c(-c3ccc(C)s3)nc2c1 qualitativelabel=inactive
compound=COC(=O)c1cn(-c2ccccc2)nc1-c1cccnc1 qualitativelabel=inactive
compound=Cc1ccc(C(=O)Nc2ccc(C)c(S(=O)(=O)N(C)C)c2)s1 qualitativelabel=active
compound=O=C(c1cn(-c2ccccc2)nc1-c1cccnc1)N1CCCCC1 qualitativelabel=inactive
compound="Cc1ccc(NC(=O)NC(C)c2c(-n3cccc3)sc(C)c2C)c(C)c1 (stereo not drawn)" qualitativelabel=inactive
compound="CC1=C(C(=O)OCC(C)C)C(c2ccc(OCc3ccccc3)cc2)N2C(=O)CCSC2=N1 (stereo not drawn)" qualitativelabel=inactive
compound=Cc1ccc(NC(=O)CNCc2ccccn2)cc1S(=O)(=O)N(C)C qualitativelabel=inactive

###

# assayNotes: qHTS Assay for Enhancers of SMN2 Splice Variant Expression; note: nearly all actives have a fitted effect of over 55% in size; for activity change, positive = activation: % of control where 0% means no effect
# conditionInfo: HEK293 SMN2-luciferase splicing reporter, luminescence, 30-36 h; series mostly up to 46.1 µM
Hit rate of the full screen: of about 210,000 compounds, about 5,900 (2.8%) were called active. Roughly 5% stayed inconclusive and do not appear here. This excerpt belongs to a sample that is enriched for actives.
propertyLabel: activity change, positive = activation

compound=c1ccc2sc(SCCSc3nc4ccccc4s3)nc2c1 propertylabel="activity change, positive = activation" assayresult="-8.26% [at 9.22 µM] (inactive)"
compound=COc1ccc(Br)cc1C(=O)NC(=S)Nc1cc(-c2nc3ccccc3[nH]2)ccc1C propertylabel="activity change, positive = activation" assayresult="-3.02% [at 1.84 µM] (inactive)"
compound=Cc1cc(C(=O)OCC(=O)Nc2nnc(C(C)C)s2)c2ccccc2n1 propertylabel="activity change, positive = activation" assayresult="10.4% [at 1.84 µM] (inactive)"
compound="COC(=O)N1C(/C=C/C=C/c2ccc(OC)cc2)=Cc2ccccc2C1CC(C)=O (centres undefined)" propertylabel="activity change, positive = activation" assayresult="-7.94% [at 9.22 µM] (inactive)"

Where do these numbers come from? They come from PubChem BioAssay AID1458.
